Where these numbers come from: patent EP3722296B1

# Target desc: Phospho-KIT (Tyr719) (Homo sapiens, UniProt P10721, K642E)
# Construct: endogenous in cells
# Sequence (P10721 26-976 K642E): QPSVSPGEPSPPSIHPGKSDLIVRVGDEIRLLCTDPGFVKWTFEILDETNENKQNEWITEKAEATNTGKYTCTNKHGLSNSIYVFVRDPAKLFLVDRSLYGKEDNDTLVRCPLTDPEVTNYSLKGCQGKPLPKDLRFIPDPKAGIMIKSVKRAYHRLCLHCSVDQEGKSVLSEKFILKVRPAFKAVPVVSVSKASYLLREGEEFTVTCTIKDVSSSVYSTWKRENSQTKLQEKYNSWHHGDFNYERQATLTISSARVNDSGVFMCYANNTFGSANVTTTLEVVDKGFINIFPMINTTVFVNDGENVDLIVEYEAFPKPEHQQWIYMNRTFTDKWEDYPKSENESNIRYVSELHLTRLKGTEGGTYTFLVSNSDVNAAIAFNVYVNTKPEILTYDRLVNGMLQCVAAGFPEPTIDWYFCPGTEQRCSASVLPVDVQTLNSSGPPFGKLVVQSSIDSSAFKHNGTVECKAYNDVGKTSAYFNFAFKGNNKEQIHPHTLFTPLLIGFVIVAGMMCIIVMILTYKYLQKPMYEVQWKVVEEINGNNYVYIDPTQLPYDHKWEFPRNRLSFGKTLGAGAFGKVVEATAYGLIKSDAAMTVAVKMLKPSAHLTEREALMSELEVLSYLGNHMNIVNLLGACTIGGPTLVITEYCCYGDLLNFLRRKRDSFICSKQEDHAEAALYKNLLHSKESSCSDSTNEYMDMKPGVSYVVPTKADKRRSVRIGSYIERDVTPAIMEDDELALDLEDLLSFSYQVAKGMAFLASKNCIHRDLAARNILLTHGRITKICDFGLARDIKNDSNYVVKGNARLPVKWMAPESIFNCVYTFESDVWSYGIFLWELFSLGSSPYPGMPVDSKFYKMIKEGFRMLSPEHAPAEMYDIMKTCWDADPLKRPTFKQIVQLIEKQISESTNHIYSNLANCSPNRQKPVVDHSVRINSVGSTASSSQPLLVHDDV
# Assay procedure: GIST882 KIT Western Blot
# Experimental context: GIST882 cells, 4 hours, serum-free medium; read-out: pKIT suppression by western blot analysi GIST 882
# Procedure: GIST48, GIST430, and GIST882 cells were obtained from J. Fletcher (Brigham and Women's Hospital, Boston, MA). […] Two hundred fifty thousand cells were added per well in a 24-well tissue-culture treated plate. […] Phospho-KIT (Tyr719) was detected using an antibody from Cell Signaling Technology (Beverly, MA), ECL Plus detection reagent (GE Healthcare, Piscataway, NJ) and a Molecular Devices Storm 840 phosphorimager in fluorescence mode. […]
Assay readout: IC50

For the compound CCn1c(=O)c(-c2cc(NC(=O)Nc3ccccc3)c(F)cc2Br)cc2cnc(N)cc21 , what IC50 is on record?
100 to 1000 nM

Please answer likewise for CCn1c(=O)c(-c2cc(NC(=O)Nc3ccc(F)c(CN4CCN(C)CC4)c3)c(F)cc2Cl)cc2cnc(NC)cc21
100 to 1000 nM

Please answer likewise for CCn1c(=O)c(-c2cc(NC(=O)Nc3ccccc3)c(F)cc2Cl)cc2cnc(NCCOC)cc21
100 to 1000 nM

Please answer likewise for CCn1c(=O)c(-c2cc(NC(=O)Nc3ccccc3)c(F)cc2Cl)cc2cnc(NC(=O)N3CC[C@@H](N(C)C)C3)cc21
10 to 100 nM

Please answer likewise for CCn1c(=O)c(-c2cc(NC(=O)Nc3ccccc3)c(F)cc2C)cc2cnc(NC(=O)N(C)C)cc21
100 to 1000 nM

Please answer likewise for CCn1c(=O)c(-c2cc(NC(=O)Nc3csc4ccccc34)c(F)cc2C)cc2cnc(NC)cc21
10 to 100 nM

Please answer likewise for CNc1cc2c(cn1)cc(-c1cc(NC(=O)Nc3csc4ccccc34)c(F)cc1F)c(=O)n2C
< 10 nM

====

Consider the following compounds; for each one, report its IC50.
# Target desc: T1, Phospho-KIT (Tyr719) (Homo sapiens, UniProt P10721, DEL560-578)
# T1 construct: endogenous in cells
# T1 sequence (P10721 with tags, fused parts or gaps DEL560-578): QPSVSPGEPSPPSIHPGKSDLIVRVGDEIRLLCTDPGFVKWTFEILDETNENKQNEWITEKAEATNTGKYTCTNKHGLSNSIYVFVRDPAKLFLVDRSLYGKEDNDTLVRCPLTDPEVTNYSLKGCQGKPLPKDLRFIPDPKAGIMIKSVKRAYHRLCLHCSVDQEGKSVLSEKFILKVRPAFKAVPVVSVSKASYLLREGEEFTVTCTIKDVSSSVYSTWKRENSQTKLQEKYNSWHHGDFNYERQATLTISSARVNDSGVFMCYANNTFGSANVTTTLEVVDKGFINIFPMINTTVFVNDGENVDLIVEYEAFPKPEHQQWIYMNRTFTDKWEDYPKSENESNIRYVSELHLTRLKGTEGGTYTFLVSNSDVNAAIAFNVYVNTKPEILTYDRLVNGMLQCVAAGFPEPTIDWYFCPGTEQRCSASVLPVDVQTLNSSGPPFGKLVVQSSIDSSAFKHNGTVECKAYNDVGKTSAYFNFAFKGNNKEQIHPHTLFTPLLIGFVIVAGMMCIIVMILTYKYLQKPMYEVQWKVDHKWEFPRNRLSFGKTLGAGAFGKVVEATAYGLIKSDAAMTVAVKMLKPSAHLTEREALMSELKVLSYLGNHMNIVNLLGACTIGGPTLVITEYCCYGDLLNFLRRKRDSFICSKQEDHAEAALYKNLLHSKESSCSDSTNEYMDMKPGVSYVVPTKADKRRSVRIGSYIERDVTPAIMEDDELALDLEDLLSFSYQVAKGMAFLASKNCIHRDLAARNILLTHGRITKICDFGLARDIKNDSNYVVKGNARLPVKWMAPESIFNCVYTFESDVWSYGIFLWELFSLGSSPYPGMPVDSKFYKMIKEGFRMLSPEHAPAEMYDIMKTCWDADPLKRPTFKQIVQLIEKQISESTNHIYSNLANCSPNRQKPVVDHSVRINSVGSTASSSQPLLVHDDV
# Assay procedure: GIST T1 KIT Western Blot
# Experimental context: GIST T1 cells, 4 hours, serum-free medium; read-out: pKIT suppression by western blot analysi GIST T1

For the compound CCn1c(=O)c(-c2cc(NC(=O)Nc3cccc4ccccc34)c(F)cc2Cl)cc2cnc(NC)cc21 , what IC50 is on record?
10 to 100 nM

Please answer likewise for CCn1c(=O)c(-c2cc(NC(=O)Nc3ccccc3)c(F)cc2Cl)cc2cnc(NC(=O)N(C)C)cc21
< 10 nM

Please answer likewise for CCn1c(=O)c(-c2cc(NC(=O)Nc3csc4ccccc34)c(F)cc2C)cc2cnc(NC)cc21
< 10 nM

Please answer likewise for CCn1c(=O)c(-c2cc(NC(=O)Nc3ccccc3)c(F)cc2Cl)cc2cnc(NC(C)=O)cc21
< 10 nM

Please answer likewise for CCn1c(=O)c(-c2cc(NC(=O)Nc3ccccc3)c(F)cc2Br)cc2cnc(N)cc21
< 10 nM

Please answer likewise for CCn1c(=O)c(-c2cc(NC(=O)Nc3cccc(F)c3)c(F)cc2C)cc2cnc(NC)cc21
< 10 nM

Please answer likewise for CNc1cc2c(cn1)cc(-c1cc(NC(=O)Nc3ccccc3)c(F)cc1Cl)c(=O)n2C(C)C
< 10 nM

Please answer likewise for CCn1c(=O)c(-c2cc(NC(=O)Nc3cccc(F)c3)c(F)cc2Cl)cc2cnc(NC)cc21
< 10 nM

Please answer likewise for CCn1c(=O)c(-c2cc(NC(=O)Nc3ccccc3)c(F)cc2C)cc2cnc(NC)cc21
< 10 nM

Please answer likewise for CCn1c(=O)c(-c2cc(NC(=O)Nc3cccc(F)c3)c(F)cc2Cl)cc2cnc(NCCOC)cc21
< 10 nM

Please answer likewise for CCn1c(=O)c(-c2cc(NC(=O)Nc3cccc(F)c3)c(F)cc2Br)cc2cnc(NC)cc21
< 10 nM

Please answer likewise for CCn1c(=O)c(-c2cc(NC(=O)Nc3csc4ccccc34)c(F)cc2Cl)cc2cnc(NC)cc21
< 10 nM

Please answer likewise for CCn1c(=O)c(-c2cc(NC(=O)Nc3cccc(F)c3)c(F)cc2Cl)cc2cnc(N)cc21
< 10 nM

Please answer likewise for CCn1c(=O)c(-c2cc(NC(=O)Nc3ccccc3)c(F)cc2Cl)cc2cnc(NC)cc21
< 10 nM
